# EXPERIMENT DESCRIPTION: amyloid nucleation score (Sup35N fusion, yeast selection) (log enrichment); library NNK1; higher = more nucleation; inactive = no reads after selection;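 note: zero at mode of non-aggregating sequences after 7 days selection at 30°C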
MEASURE: amyloid nucleation score

Inquiry: Look up amyloid nucleation score: NGTGLFNNLWVGSLRLRVTR
Reply text: 0.192

Inquiry: Look up amyloid nucleation score: EWYLIYGGTRSGLIYRSYAR
Reply text: 0.109

Inquiry: Look up amyloid nucleation score: GFWAKSPLAGHSYKGYQLWA
Reply text: 1.62

Inquiry: Look up amyloid nucleation score: PNYIRGSIINYILEYSISIN
Reply text: 0.02

Inquiry: Look up amyloid nucleation score: SFSCSVVLNRILMGIIYTCG
Reply text: -0.836

Inquiry: Look up amyloid nucleation score: YAYFVSWGVFVIENVFPYKY
Reply text: -1.27

Inquiry: Look up amyloid nucleation score: GFTTMEDCGPREGPTIVDDK
Reply text: -0.149

Inquiry: Look up amyloid nucleation score: ACSCDALRSNLAIIKRESRV
Reply text: -0.766

Inquiry: Look up amyloid nucleation score: VLEISIDSDRAPMCGRRMDL
Reply text: 0.56

Inquiry: Look up amyloid nucleation score: NILPSREYHVAKVAGCATGW
Reply text: -0.618

Inquiry: Look up amyloid nucleation score: SIVETAVVSKYVERSYGQEG
Reply text: -0.437

Inquiry: Look up amyloid nucleation score: NNVLCSGKMGRLCVGCIMPC
Reply text: -0.507

Inquiry: Look up amyloid nucleation score: SQTSVPGGSDEAGAGVKQGF
Reply text: 0.134

Inquiry: Look up amyloid nucleation score: TYKFGYVHVDTFMTVLMHTL
Reply text: -0.169

Inquiry: Look up amyloid nucleation score: TFGDWHKLRWRRSQPKCWSG
Reply text: 0.299

----------
# EXPERIMENT DESCRIPTION: amyloid nucleation score (Sup35N fusion, yeast selection) (log enrichment); library NNK3; higher = more nucleation; inactive = no reads after selection
MEASURE: amyloid nucleation score

Worked examples follow.
RLSGNADYNNWTF ... 0.436
TWMKMSTEWRTLDLDCWNSS ... 1.34
ESRVPRSIKDSL ... inactive
KIWYLSIYVYFYVYYLDGSL ... inactive
IPLLNVFSTRRSTCLEGSFT ... inactive

Inquiry: Look up amyloid nucleation score: SEMLFIDQLCSSSVSKYTVI
Reply text: inactive

Inquiry: Look up amyloid nucleation score: YYAFPLYKKSFYRIPTNVWA
Reply text: inactive

Inquiry: Look up amyloid nucleation score: LARMTCYSDCGSNRGLRRVG
Reply text: inactive

----------
# EXPERIMENT DESCRIPTION: amyloid nucleation score (Sup35N fusion, yeast selection) (log enrichment); library NNK1; higher = more nucleation; inactive = no reads after selection
Kindly state amyloid nucleation score for each of the entries shown.
Write the value as a bare number.

Inquiry: Look up amyloid nucleation score: CFQLRVGMTDDALWRLMC
Reply text: -0.452

Inquiry: Look up amyloid nucleation score: RIPRFLNSLSEYYYLDFHYG
Reply text: 1.15

Inquiry: Look up amyloid nucleation score: FKHDYKFEGVCRVNDFLMGF
Reply text: -0.115

Inquiry: Look up amyloid nucleation score: SPPDVSNN
Reply text: -0.169

Inquiry: Look up amyloid nucleation score: RMRATLDLSFWFGKEQYARV
Reply text: 0.389

Inquiry: Look up amyloid nucleation score: FQMNSCNWSVTGRIVFPDVY
Reply text: 1.58

Inquiry: Look up amyloid nucleation score: EVLKVSHSF
Reply text: -0.009
